Target: T1, murine RANK (receptor) (murine, UniProt O35305 31-214, limits assumed)
T1 construct: Control surface in the SPR screening
T1 sequence (looked up): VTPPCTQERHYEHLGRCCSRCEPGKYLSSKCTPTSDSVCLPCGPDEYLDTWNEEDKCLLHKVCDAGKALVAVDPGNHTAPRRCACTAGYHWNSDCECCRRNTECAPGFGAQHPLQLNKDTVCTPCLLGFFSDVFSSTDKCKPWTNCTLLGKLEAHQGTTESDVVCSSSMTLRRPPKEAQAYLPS
Test: SPR (Biacore): clarified E. coli extract diluted 1:50 injected over immobilised DR4, DR5, DcR1 and RANK; bars are the response as a fraction of the DR4 response
Procedure: Control extracts of BL21 (DE3) culture without an over-expression plasmid and of a BL21 (DE3) culture with plasmid over-expressing SH3 domain were also injected.

binder: TRAIL mutant G160K (ligand) VRERGPQRVAAHITGTRGRSNTLSSPNSKNEKALGRKINSWESSRSKHSFLSNLHLRNGELVIHEKGFYYIYSQTYFRFQEEIKENTKNDKQMVQYIYKYTSYPDPILLMKSARNSCWSKDAEYGLYSIYQGGIFELKENDRIFVSVTNEHLIDMDHEASFFGAFLVG
binding result: no binding
//
binder: TRAIL mutant D218Y (ligand) VRERGPQRVAAHITGTRGRSNTLSSPNSKNEKALGRKINSWESSRSGHSFLSNLHLRNGELVIHEKGFYYIYSQTYFRFQEEIKENTKNDKQMVQYIYKYTSYPYPILLMKSARNSCWSKDAEYGLYSIYQGGIFELKENDRIFVSVTNEHLIDMDHEASFFGAFLVG
binding result: no binding
